- TARGET: Hcon-TPP1 (Haemonchus contortus)
- Sequence (A0A7I4Z3L8 entry or part of it): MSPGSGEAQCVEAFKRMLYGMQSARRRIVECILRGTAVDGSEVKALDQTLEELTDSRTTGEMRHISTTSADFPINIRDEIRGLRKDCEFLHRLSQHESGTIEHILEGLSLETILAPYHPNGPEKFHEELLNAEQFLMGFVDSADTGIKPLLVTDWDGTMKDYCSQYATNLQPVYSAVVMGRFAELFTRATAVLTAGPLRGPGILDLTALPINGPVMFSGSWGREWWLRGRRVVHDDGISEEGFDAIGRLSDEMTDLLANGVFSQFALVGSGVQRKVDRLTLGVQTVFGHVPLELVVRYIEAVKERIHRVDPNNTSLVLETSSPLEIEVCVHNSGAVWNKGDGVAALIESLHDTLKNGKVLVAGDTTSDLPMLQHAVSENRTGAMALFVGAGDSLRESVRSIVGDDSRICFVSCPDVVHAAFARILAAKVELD
- MEASUREMENT DESCRIPTION: biochemical
- SETUP CONDITIONS: read-out: app. Ki; Hcon-TPP1, assuming a competitive inhibition model; listed as N-(phenylthio)phthalimide
PARAMETER: pKi
Recall that pKi is obtained by taking minus log10 of the concentration measured in molar.

Request: Consider the compound O=C1c2ccccc2C(=O)N1Sc1ccccc1 [Compound 1, N-(phenylthio)phthalimide] and give its measured pKi.
Response: 5.24

###

- TARGET: Paer-ecTPP (Pseudomonas aeruginosa, UniProt B3G2E1)
- Sequence (B3G2E1 entry or part of it): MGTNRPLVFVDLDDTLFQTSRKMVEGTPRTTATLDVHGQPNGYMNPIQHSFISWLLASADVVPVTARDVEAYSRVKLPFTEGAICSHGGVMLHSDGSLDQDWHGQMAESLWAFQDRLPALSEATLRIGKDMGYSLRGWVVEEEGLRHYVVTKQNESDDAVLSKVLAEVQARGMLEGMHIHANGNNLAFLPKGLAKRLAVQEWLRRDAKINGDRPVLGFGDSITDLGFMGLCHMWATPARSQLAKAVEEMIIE
- MEASUREMENT DESCRIPTION: Phosphatase end-point assay, extra-chromosomal TPP from P. aeruginosa
- Format: biochemical
- SETUP CONDITIONS: Paer-ecTPP, assuming a competitive inhibition model; read-out: app. Ki
PARAMETER: Ki (nM)
# number only, unit nM dropped from output

Request: Consider the compound O=C1c2ccccc2C(=O)N1Sc1ccccc1 [Compound 1, N-(phenylthio)phthalimide] and give its measured Ki.
Response: 2100
